These measurements were taken from patent US20250002507A1.

Biological target: Human M4 (Homo sapiens, UniProt P08173)
Construct: expressed in transfected cells
Sequence (P08173 1-479): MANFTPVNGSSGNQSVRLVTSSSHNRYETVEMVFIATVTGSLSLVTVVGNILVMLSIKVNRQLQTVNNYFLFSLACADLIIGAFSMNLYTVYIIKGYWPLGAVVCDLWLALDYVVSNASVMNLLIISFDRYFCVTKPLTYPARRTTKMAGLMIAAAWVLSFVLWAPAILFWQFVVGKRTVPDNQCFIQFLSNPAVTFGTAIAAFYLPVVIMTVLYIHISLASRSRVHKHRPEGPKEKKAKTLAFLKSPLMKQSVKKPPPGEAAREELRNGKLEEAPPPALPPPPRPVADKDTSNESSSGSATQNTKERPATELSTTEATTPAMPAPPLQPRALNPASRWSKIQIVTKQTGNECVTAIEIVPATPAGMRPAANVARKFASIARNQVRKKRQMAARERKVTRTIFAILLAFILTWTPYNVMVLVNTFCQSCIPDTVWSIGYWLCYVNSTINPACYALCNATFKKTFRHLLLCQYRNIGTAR
Assay: mAChR M4 cell-based functional assay (calcium flux, potentiation of EC20 acetylcholine response), hM4-Gqi5 CHO-K1 cells
Conditions: Table 3; potentiation of EC20 acetylcholine response, calcium flux, CHO-K1 cells; read-out: Human M4 EC50
parameterMeasured: EC50 (µM)

Here is how some compounds turned out for EC50.
[
  {
    "compound": "CC(=O)c1cnc2c(c1)CN(c1nn3cnnc3c(C)c1C)CC2 [Compound 184]",
    "measuredOn": "Human M4 (Homo sapiens, UniProt P08173)",
    "obsValue": 0.704
  },
  {
    "compound": "Cc1c(N2CCc3ncc(NC(=O)c4ccc(F)cc4)cc3C2)nn2cnnc2c1C [Compound 158]",
    "measuredOn": "Human M4 (Homo sapiens, UniProt P08173)",
    "obsValue": 0.672
  }
]

[A] Cc1ccc(-c2cnc3c(c2)CN(c2nn4cnnc4cc2C)CC3)cn1 [Compound 198]
[B] COc1ncc(-c2cnc3c(c2)CN(c2nn4cnnc4c(C)c2C)CC3)cc1Cl [Compound 173]
[C] Cc1c(N2CCc3ncc(C(F)(F)F)cc3C2)nn2c(Cl)nnc2c1C [Compound 268]
[ask] Sort ascending by EC50. Put the labels in the requested order and list them out.
[reply] C, A, B
(C: 0.143 µM, A: 0.206 µM, B: 0.937 µM)

* * *

target: Human M4 (Homo sapiens, UniProt P08173); construct: expressed in transfected cells; experiment: mAChR M4 cell-based functional assay (calcium flux, potentiation of EC20 acetylcholine response), hM4-Gqi5 CHO-K1 cells; settings: Table 3; potentiation of EC20 acetylcholine response, calcium flux, CHO-K1 cells; read-out: Human M4 EC50
parameterMeasured: EC50 (nM)

[
  {
    "compound": "Cc1c(N2CCc3ncc(-c4cc(F)cnc4Cl)cc3C2)nn2cnnc2c1C",
    "measuredOn": "Human M4 (Homo sapiens, UniProt P08173)",
    "EC50 / nM": 539
  },
  {
    "compound": "Cc1c(N2CCc3ncc(-c4ccc(N5CCC5)nc4)cc3C2)nn2cnnc2c1C",
    "measuredOn": "Human M4 (Homo sapiens, UniProt P08173)",
    "EC50 / nM": 223
  },
  {
    "compound": "CCn1cc(-c2cnc3c(c2)CN(c2nn4c(C(F)(F)F)nnc4c(C)c2C)CC3)cn1",
    "measuredOn": "Human M4 (Homo sapiens, UniProt P08173)",
    "EC50 / nM": 332
  }
]

[I] Cc1c(N2CCc3ncc(C4CC4)cc3C2)nn2cnnc2c1C
[II] Cc1c(N2CCc3ncc(N4CCCc5ccccc54)cc3C2)nn2c(C(F)(F)F)nnc2c1C
[ask] Higher EC50 between I and II ? Refer to your chosen entry by its label in the reply.
[reply] II
(II: 1930 nM, I: 53 nM)

[I] Cc1c(N2CCc3ncc(N4CCCC4)cc3C2)nn2c(C(F)(F)F)nnc2c1C
[II] Cc1cc2nncn2nc1N1CCc2ncc(Oc3cc(F)ccc3F)cc2C1
[ask] Smaller EC50 value? Options are I and II Refer to your chosen entry by its label in the reply.
[reply] II
(II: 41 nM, I: 933 nM)
